Molecular target: CDK2 (Homo sapiens, UniProt P24941)
Construct: purchased Carna Company
Test: CDK enzymology experiment in vitro, capillary mobility shift assay (MSA)
Type: biochemical
Settings: read-out: CDK2 (nM) inhibitory IC50
observable: IC50

Worked examples follow.
O=S(=O)(c1ccc(N2CCNC(C(F)(F)F)C2)cc1)N1CCC(Nc2ncc(C(F)(F)F)c(O[C@H]3CCOC3)n2)CC1 (stereo partly shown) [Compound 147]	0.5 to 2.5 nM
Cn1cc(-c2ccc(S(=O)(=O)N3CCC(Nc4ncc(C#N)c(N[C@@H]5CCC[C@@H]5O)n4)CC3)cc2)cn1 [Compound 61]	0.5 to 2.5 nM
Cn1cc(-c2ccc(S(=O)(=O)N3CCC(Nc4ncc(C#N)c(N[C@H]5CCOC5)n4)CC3)cc2)cn1 [Example 8]	0.5 to 2.5 nM
O=S(=O)(c1ccc(C2=CCNCC2)cn1)N1CCC(Nc2ncc(C(F)(F)F)c(O[C@H]3CCOC3)n2)CC1 [Compound 176]	< 0.5 nM
Cn1cc(S(=O)(=O)N2CCC(Nc3ncc(C#N)c(O[C@H]4CC[C@H](O)C4)n3)CC2)cn1 (single isomer, unassigned) [Compound 56]	2.5 to 10 nM

Entry C[C@@H]1CN(c2ccc(S(=O)(=O)N3CCC(Nc4ncc(C(F)(F)F)c(O[C@@H]5CCOC5)n4)CC3)cc2)C[C@H](C)N1 [Compound 210] needs its IC50 filled in; supply it.
0.5 to 2.5 nM

Entry O=S(=O)(c1ccc(N2C3CNCC2C3)nc1)N1CCC(Nc2ncc(C(F)(F)F)c(O[C@H]3CCOC3)n2)CC1 [Compound 189] needs its IC50 filled in; supply it.
< 0.5 nM

----------
Biological target: CDK4 (Homo sapiens, UniProt P11802)
Construct: purchased Carna Company
Sequence (P11802 whole entry): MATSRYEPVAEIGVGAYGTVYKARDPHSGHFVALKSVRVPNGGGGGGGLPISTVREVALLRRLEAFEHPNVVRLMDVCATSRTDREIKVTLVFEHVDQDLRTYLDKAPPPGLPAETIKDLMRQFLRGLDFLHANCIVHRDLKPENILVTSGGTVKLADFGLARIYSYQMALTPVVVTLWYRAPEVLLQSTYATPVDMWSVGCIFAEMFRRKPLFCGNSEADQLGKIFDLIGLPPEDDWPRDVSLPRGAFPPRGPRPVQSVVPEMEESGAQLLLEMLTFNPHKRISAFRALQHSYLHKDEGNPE
Sequence (P30281 whole entry partner): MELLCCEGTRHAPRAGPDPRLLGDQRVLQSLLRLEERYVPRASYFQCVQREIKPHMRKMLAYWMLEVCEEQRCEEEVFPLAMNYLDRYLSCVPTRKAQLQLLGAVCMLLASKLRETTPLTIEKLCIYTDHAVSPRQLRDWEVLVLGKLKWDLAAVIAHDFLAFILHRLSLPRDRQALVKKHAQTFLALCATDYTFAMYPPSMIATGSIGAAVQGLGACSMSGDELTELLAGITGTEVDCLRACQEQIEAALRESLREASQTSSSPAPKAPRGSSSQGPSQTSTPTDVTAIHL
Experiment: CDK enzymology experiment in vitro, capillary mobility shift assay (MSA)
Format: biochemical
Conditions: read-out: CDK4 (nM) inhibitory IC50
Excerpt: CDK1/CDK2/CDK4/CDK6/CDK7/CDK9 were purchased from Carna Company; Carliper substrate CTD3/substrate 18/substrate 8 were purchased from Gil Biochemical Company; Dinaciclib/Palbociclib were purchased from Selleckchem Company; DMSO was purchased from Sigma Company; 384-well plates were purchased from Corning Company. […]
Entries and their measured IC50 follow.

N#Cc1cnc(NC2CCN(S(=O)(=O)c3ccc(C4=CCNCC4)cc3)CC2)nc1NC1CCCC1(F)F (stereo not drawn) [Compound 135]	0.5 to 2.5 nM

Entry N#Cc1cnc(NC2CCN(S(=O)(=O)c3ccc(C4=CCNCC4)cc3)CC2)nc1O[C@H]1CCOC1 [Compound 104] needs its IC50 filled in; supply it.
2.5 to 10 nM

Entry O=S(=O)(c1ccc(N2CCNC(C(F)(F)F)C2)cc1)N1CCC(Nc2ncc(C(F)(F)F)c(O[C@H]3CCOC3)n2)CC1 (stereo partly drawn) [Compound 147] needs its IC50 filled in; supply it.
0.5 to 2.5 nM

Entry CC(C)Nc1nc(NC2CCN(S(C)(=O)=O)CC2)ncc1C#N [Compound 28] needs its IC50 filled in; supply it.
50 to 100 nM

----------
Target: CDK2 (Homo sapiens, UniProt P24941)
Construct: purchased Carna Company
Assay: CDK enzymology experiment in vitro, capillary mobility shift assay (MSA)
Assay type: biochemical
Details: read-out: CDK2 (nM) inhibitory IC50
Entries and their measured IC50 follow.

Worked examples follow.
O=S(=O)(c1ccc(C2=CCNCC2)cc1)N1CCC(Nc2ncc(C(F)(F)F)c(NC3CCCC3(F)F)n2)CC1 (stereo not shown)	0.5 to 2.5 nM
Cn1cc(S(=O)(=O)N2CCC(Nc3ncc(C#N)c(N[C@@H]4CCC[C@H]4O)n3)CC2)cn1	2.5 to 10 nM
Cn1cc(S(=O)(=O)N2CC[C@H](Nc3ncc(C(F)(F)F)c(O[C@H]4CCOC4)n3)[C@H](F)C2)cn1	< 0.5 nM
C[C@@H]1CN(c2ccc(S(=O)(=O)N3CCC(Nc4ncc(C(F)(F)F)c(O[C@H]5CCOC5)n4)CC3)cn2)CCN1	< 0.5 nM
Cn1cc(S(=O)(=O)N2CCC(Nc3ncc(C#N)c(NC4(C)CCCC4)n3)CC2)cn1	0.5 to 2.5 nM

Consider the additional compound presented here.
Entry `Cc1cc(S(=O)(=O)N2CCC(Nc3ncc(C(F)(F)F)c(O[C@H]4CCOC4)n3)CC2)ccc1C1CCNCC1` needs its IC50 filled in; supply it.
< 0.5 nM
